tgt: CRE1/AHK4 (Arabidopsis thaliana, UniProt Q9C5U0)
Construct: expressed in transfected cells; host or cells: Escherichia coli KMI001, plasmid pIN-III-AHK4
Sequence (Q9C5U0 whole entry): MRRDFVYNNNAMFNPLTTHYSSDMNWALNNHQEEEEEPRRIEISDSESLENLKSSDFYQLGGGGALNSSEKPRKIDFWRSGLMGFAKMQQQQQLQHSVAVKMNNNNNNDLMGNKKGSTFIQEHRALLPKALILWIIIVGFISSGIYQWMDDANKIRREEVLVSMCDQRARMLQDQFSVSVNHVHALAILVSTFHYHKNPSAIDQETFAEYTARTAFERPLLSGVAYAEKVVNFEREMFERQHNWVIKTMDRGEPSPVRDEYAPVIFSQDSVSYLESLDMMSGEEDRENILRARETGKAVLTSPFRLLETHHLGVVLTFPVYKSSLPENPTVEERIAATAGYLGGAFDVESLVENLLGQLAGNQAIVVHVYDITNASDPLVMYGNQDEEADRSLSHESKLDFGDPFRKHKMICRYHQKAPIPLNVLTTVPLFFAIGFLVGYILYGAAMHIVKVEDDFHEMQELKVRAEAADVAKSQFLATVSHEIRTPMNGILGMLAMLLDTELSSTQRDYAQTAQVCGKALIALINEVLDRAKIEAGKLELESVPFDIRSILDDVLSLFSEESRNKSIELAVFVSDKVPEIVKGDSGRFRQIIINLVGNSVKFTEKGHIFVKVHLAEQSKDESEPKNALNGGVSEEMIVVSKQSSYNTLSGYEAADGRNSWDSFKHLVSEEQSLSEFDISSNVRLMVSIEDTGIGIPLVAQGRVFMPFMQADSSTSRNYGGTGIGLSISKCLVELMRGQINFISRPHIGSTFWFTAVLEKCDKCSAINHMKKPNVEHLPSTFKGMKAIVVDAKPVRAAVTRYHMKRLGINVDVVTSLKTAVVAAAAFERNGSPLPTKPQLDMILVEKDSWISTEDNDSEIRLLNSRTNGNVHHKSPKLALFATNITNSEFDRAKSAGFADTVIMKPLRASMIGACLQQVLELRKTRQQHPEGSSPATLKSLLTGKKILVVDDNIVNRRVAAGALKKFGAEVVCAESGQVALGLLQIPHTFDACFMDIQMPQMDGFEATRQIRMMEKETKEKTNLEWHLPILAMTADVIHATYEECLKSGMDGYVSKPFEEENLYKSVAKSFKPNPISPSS
run-description: Activation of cytokinin receptor CRE1/AHK4 in E. coli KMI001 (β-galactosidase reporter)
Format: cell-based
measurement-parameters: E. coli KMI001 pIN-III-AHK4, 17 h incubation; n.i. means without interaction
endpoint: EC50 CRE1/AHK4 (activation of cytokinin receptor)

Example entries and their recorded answers appear below.
| compound | result |
| --- | --- |
| CCc1ccc(N)c(CNc2ncnc3nc[nH]c23)c1 | n.i. |
| Cc1ccc(N)c(CNc2ncnc3nc[nH]c23)c1 | n.i. |
| Cc1ccc(CNc2ncnc3nc[nH]c23)c(O)c1C | n.i. |
| Cc1cc(C)c(O)c(CNc2ncnc3nc[nH]c23)c1 | n.i. |
| Cc1cccc(O)c1CNc1ncnc2nc[nH]c12 [Compound 11, 6-(2-hydroxy-6-methylbenzylamino)purine] | n.i. |
| Cc1cccc(CNc2ncnc3nc[nH]c23)c1O [Compound 8, 6-(2-hydroxy-3-methylbenzylamino)purine] | n.i. |

Next:
Report its EC50 CRE1/AHK4 (activation of cytokinin receptor) with CRE1/AHK4 (Arabidopsis thaliana, UniProt Q9C5U0) as the test system: Cc1ccc([N+](=O)[O-])c(CNc2ncnc3nc[nH]c23)c1
n.i.

----------
tgt: CRE1/AHK4 (Arabidopsis thaliana, UniProt Q9C5U0)
Construct: expressed in transfected cells; host or cells: Escherichia coli KMI001, plasmid pIN-III-AHK4
run-description: Activation of cytokinin receptor CRE1/AHK4 in E. coli KMI001 (β-galactosidase reporter)
Assay type: cell-based
Experimental: Escherichia coli strains KMI001 harbouring the plasmid pIN-III-AHK4 or pSTV28-AHK3 were grown overnight at 25° C. in M9 media enriched with 0.1% casamino acids to OD600˜1. […] Fluorescence was measured using a Fluoroscan Ascent (Labsystems, Finland) at the excitation and emission wavelengths of 365 and 460 nm, respectively. The OD600 of remaining culture was determined and β-galactosidase activity was calculated as nmol 4-methylumbelliferone×OD600^−1×h^−1. […]
endpoint: EC50 (µM)
The response must be a number in µM with no trailing unit.

Indicate the recorded EC50 value for this molecule: c1ccc(CNc2ncnc3nc[nH]c23)cc1 [6-(benzylamino)purine]
19.7

----------
Test system: osteosarcoma cell line HOS
run-description: Calcein AM cytotoxicity assay, HOS
Assay type: cell-based, human
measurement-parameters: Homo sapiens, 72 hours
endpoint: GI50

Example entries and their recorded answers appear below.
| molecule | endpoint | result |
| --- | --- | --- |
| c1coc(CNc2ncnc3[nH]cnc23)c1 | GI50 | > 100 µM |
| Nc1ncnc2nc[nH]c12 | GI50 | > 100 µM |
| Cc1cccc(CNc2ncnc3nc[nH]c23)c1O [Compound 8, 6-(2-hydroxy-3-methylbenzylamino)purine] | GI50 | > 50 µM |
| c1ccc(CNc2ncnc3nc[nH]c23)cc1 | GI50 | > 100 µM |

Indicate the recorded GI50 value for this molecule: Cc1ccc(O)c(CNc2ncnc3nc[nH]c23)c1 [Compound 10, 6-(2-hydroxy-5-methylbenzylamino)purine]
> 100 µM

----------
Tested on: human diploid fibroblasts BJ
run-description: Calcein AM cytotoxicity assay, BJ
Assay type: cell-based
measurement-parameters: Homo sapiens, Fibroblast, 72 hours
Entries and their measured GI50 follow.

| compound | result |
| --- | --- |
| Cc1ccc(O)c(CNc2ncnc3nc[nH]c23)c1 [Compound 10, 6-(2-hydroxy-5-methylbenzylamino)purine] | > 100 µM |
| c1ccc(CNc2ncnc3nc[nH]c23)cc1 | > 100 µM |
| Nc1ncnc2nc[nH]c12 | > 100 µM |
| c1coc(CNc2ncnc3[nH]cnc23)c1 | > 100 µM |

Indicate the recorded GI50 value for this compound: Cc1cccc(CNc2ncnc3nc[nH]c23)c1O [Compound 8, 6-(2-hydroxy-3-methylbenzylamino)purine]
> 50 µM

----------
tgt: AHK3 (Arabidopsis thaliana)
Construct: expressed in transfected cells; host or cells: Escherichia coli KMI001, plasmid pSTV28-AHK3
Sequence (Q9C5U1 1-1036): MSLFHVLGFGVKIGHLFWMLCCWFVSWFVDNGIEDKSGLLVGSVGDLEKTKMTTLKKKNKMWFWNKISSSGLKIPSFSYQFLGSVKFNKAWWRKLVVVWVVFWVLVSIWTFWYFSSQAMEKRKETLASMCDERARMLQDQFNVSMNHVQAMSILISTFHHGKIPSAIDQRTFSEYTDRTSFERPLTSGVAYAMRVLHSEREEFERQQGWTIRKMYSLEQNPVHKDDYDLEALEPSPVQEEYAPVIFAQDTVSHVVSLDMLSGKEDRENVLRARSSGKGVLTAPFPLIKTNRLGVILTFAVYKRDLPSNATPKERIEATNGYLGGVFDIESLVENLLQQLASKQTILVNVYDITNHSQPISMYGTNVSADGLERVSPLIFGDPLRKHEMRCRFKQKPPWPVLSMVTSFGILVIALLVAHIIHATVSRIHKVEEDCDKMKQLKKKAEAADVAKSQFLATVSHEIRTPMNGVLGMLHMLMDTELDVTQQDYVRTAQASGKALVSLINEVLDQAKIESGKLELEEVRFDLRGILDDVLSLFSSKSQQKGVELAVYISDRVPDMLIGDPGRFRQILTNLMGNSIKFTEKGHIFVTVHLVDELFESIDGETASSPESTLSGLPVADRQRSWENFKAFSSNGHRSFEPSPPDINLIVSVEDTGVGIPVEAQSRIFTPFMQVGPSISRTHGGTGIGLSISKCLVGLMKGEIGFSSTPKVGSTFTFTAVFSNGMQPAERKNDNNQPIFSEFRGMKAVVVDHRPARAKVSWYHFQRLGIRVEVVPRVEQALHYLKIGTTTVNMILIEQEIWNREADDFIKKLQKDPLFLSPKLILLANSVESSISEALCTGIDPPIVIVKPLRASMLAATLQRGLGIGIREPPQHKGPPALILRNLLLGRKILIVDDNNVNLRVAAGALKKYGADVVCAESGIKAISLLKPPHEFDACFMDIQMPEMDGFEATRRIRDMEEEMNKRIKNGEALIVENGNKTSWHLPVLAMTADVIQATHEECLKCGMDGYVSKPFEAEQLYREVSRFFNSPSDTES
run-description: Activation of cytokinin receptor AHK3 in E. coli KMI001 (β-galactosidase reporter)
Type: cell-based
measurement-parameters: E. coli KMI001 pSTV28-AHK3, 28 h incubation; n.i. means without interaction; read-out: EC50 AHK3 (activation of cytokinin receptor)
pEC50: −log10 of the molar value.
Entries and their measured pEC50 follow.

| molecule | tgt | endpoint | result |
| --- | --- | --- | --- |
| C/C(=C\CNc1ncnc2nc[nH]c12)CO [trans-zeatin] | AHK3 (Arabidopsis thaliana) | pEC50 | 5.68 |
| Cc1ccc(O)c(CNc2ncnc3nc[nH]c23)c1 [Compound 10, 6-(2-hydroxy-5-methylbenzylamino)purine] | AHK3 (Arabidopsis thaliana) | pEC50 | < 4.00 |

Report its pEC50 with AHK3 (Arabidopsis thaliana) as the test system: Cc1cccc(CNc2ncnc3nc[nH]c23)c1[N+](=O)[O-]
< 4.00

Report its pEC50 with AHK3 (Arabidopsis thaliana) as the test system: Cc1cccc(CNc2ncnc3nc[nH]c23)c1O [Compound 8, 6-(2-hydroxy-3-methylbenzylamino)purine]
< 4.00

----------
System: cytokinin-dependent tobacco callus Nicotiana tabacum L. cv. Wisconsin 38
run-description: Cytokinin-dependent tobacco callus bioassay
Assay type: cell-based
measurement-parameters: at concentration with highest activity; n.a. means inactive
Method: Stimulatory effect of newly prepared derivatives was tested using cytokinin-dependent tobacco callus. The cytokinin-dependent tobacco callus Nicotiana tabacum L. cv. […] The biological activity was determined from the increase of the fresh callus weight after four weeks of cultivation. […] From the obtained data, the concentration with the highest activity was selected for each compound tested. Relative activity of the compound at this concentration was calculated (Table 3). […]
Entries and their measured activity (%) [10^−6 mol · l^−1 BA = 100%] follow.

Example entries and their recorded answers appear below.
| compound | result |
| --- | --- |
| Cc1ccc(O)c(CNc2ncnc3nc[nH]c23)c1 [Compound 10, 6-(2-hydroxy-5-methylbenzylamino)purine] | 35 (±8) % |
| Cc1cccc(CNc2ncnc3nc[nH]c23)c1O [Compound 8, 6-(2-hydroxy-3-methylbenzylamino)purine] | 2 (±2) % |
| Cc1cccc(O)c1CNc1ncnc2nc[nH]c12 [Compound 11, 6-(2-hydroxy-6-methylbenzylamino)purine] | 23 (±5) % |

Next:
Indicate the recorded activity (%) [10^−6 mol · l^−1 BA = 100%] value for this compound: c1ccc(CNc2ncnc3nc[nH]c23)cc1 [6-(benzylamino)purine]
100%
